Test system: HCT-15 colon
testProtocol: NCI tumour cell line growth inhibition, 48 h
Catalogue of TGI readings, one per entry.
Report the value in µM with no unit label.

Consider the following illustrative entries.
{"columns": ["compound", "outputUnit", "TGI"],
 "data": [
  ["CC(C)(Cl)C(Br)CCC(C)(Cl)C(Br)CBr (configuration not stated)", "µM", 61.9],
  ["Cc1cc(I)cc(CN(C)CCCN2CCCCCCC2)c1O", "µM", 23.3],
  ["CC(C)=CCNc1ncnc2c1ncn2C1OC(CO)C(O)C1O (configuration not stated)", "µM", 36.8],
  ["CC(C)=CC/C=C(/C)[C@H]1CC[C@]2(C)[C@@H]1CC[C@@H]1[C@@]3(C)CCCNC(C)(C)[C@@H]3CC[C@]12C", "µM", 3.56],
  ["O=C1/C(=C/c2ccc(Br)cc2)COc2ccc(O)c(O)c21", "µM", 1.51]
]}

Shifting focus to the compound that follows.
Query: Dear colleague, please send me the reported TGI for CN(C)CCCNC(=O)c1cc2[nH]c3c(cnc4ccc([N+](=O)[O-])cc43)c(=O)c2n1C when you can.
Result: 31.8

Values compiled from PubChem BioAssay (NCI).
